Where these numbers come from: paper PMC9251361

The reader will find reported MIC values values listed item by item below.
System: E. coli ATCC25922 ΔrfaC (120 ΔrfaC)
Assay: MIC broth microdilution
Format: cell-based, Escherichia coli
Settings: Table 3; strain ATCC25922 ΔrfaC; MHB, 37°C, 18 h

Previously resolved entries follow.
{"substance": "-Cys- RAGLQFPVGRVHRLLRK-NH2 (BF2A) [PNA4030, anti acpP PNA conjugated to buforin 2a (BF2A) via Cys]", "recorded-result": "<0.25 µM"}
{"substance": "-Cys-GKPRPYSPRPTSHPRPIRV-R-X-R-NH2 [PNA4448, anti acpP PNA conjugated to drosocin extended by R-X-R]", "recorded-result": "<0.12 µM"}
{"substance": "-Cys-RAGLQFPVGRVHRLLRK-NH2 (BF2A) [PNA4243, mm for PNA4030]", "recorded-result": "<2 µM"}

Next substance, please.
GET /value?item= -Cys-RAGLQFPVGRVHRLLRK-R-X-R-NH2 (BF2A) [PNA4449, anti acpP PNA conjugated to BF2A extended by R-X-R] &field=MIC values returns <0.25 µM

----------
System: E. coli ATCC25922
Format: cell-based, Escherichia coli
Conditions: Table 3; strain ATCC25922; MHB, 37°C, 18 h
parameter-measured: MIC values (µM)
Give a bare numeral; the unit µM is implied.

Illustrative cases are given below, each with its answer.
{"substance": "-Cys-RAGLQFPVGRVHRLLRK-R-X-R-NH2 (BF2A) [PNA4449, anti acpP PNA conjugated to BF2A extended by R-X-R]", "quantity-unit": "µM", "MIC values": 1}
{"substance": "-Cys- RAGLQFPVGRVHRLLRK-NH2 (BF2A) [PNA4030, anti acpP PNA conjugated to buforin 2a (BF2A) via Cys]", "quantity-unit": "µM", "MIC values": 0.5}

As a next step, examine the substance that follows.
Noted for -Cys-GKPRPYSPRPTSHPRPIRV-R-X-R-NH2 [PNA4448, anti acpP PNA conjugated to drosocin extended by R-X-R] : its MIC values reads 2

----------
System: E. coli MG1655 ΔsbmA
Experiment: MIC broth microdilution
Format: cell-based, Escherichia coli
Details: Table 3; strain MG1655 ΔsbmA; MHB, 37°C, 18 h
Reported MIC values values are given for each entry in this list.

Examples from the recorded data:
{"substance": "-Cys-RAGLQFPVGRVHRLLRK-R-X-R-NH2 (BF2A) [PNA4449, anti acpP PNA conjugated to BF2A extended by R-X-R]", "tested-target": "E. coli MG1655 ΔsbmA", "MIC values": ">4 µM"}
{"substance": "-Cys-GKPRPYSPRPTSHPRPIRV-R-X-R-NH2 [PNA4448, anti acpP PNA conjugated to drosocin extended by R-X-R]", "tested-target": "E. coli MG1655 ΔsbmA", "MIC values": "2 µM"}
{"substance": "-Cys-GKPRPYSPRPTSHPRPIRV-NH2 (Drosocin) [PNA4128, anti acpP PNA conjugated to drosocin via Cys]", "tested-target": "E. coli MG1655 ΔsbmA", "MIC values": "4 to 8 µM"}
{"substance": "-Cys-VDKPPYLPRPRPPRRIYNR-NH2 (oncocin) [PNA4124, anti acpP PNA conjugated to oncocin via Cys]", "tested-target": "E. coli MG1655 ΔsbmA", "MIC values": ">8 µM"}

Consider now this further substance.
For -Cys- RAGLQFPVGRVHRLLRK-NH2 (BF2A) [PNA4030, anti acpP PNA conjugated to buforin 2a (BF2A) via Cys] the substance record lists MIC values as 8 to 16 µM
